From: ChEMBL document CHEMBL1148380

- method notes: pIC50 value for stimulation of TNF-alpha release in gamma-delta T cells, using a constrained maximum TNF-alpha release of 2700 pg/mL
- Assay type: functional, cell-based
- test conditions: Homo sapiens, T-cell
readout name: IC50 (µM)

INSERT INTO assay_data (compound, readout_name, unit_text, observed_result) VALUES
  ('NCCCCCC(O)(P(=O)(O)O)P(=O)(O)O [NERIDRONIC ACID]', 'IC50', 'µM', 501),
  ('CCCCCCC(O)(P(=O)(O)O)P(=O)(O)O', 'IC50', 'µM', 2090),
  ('NCCCCC(O)(P(=O)(O)O)P(=O)(O)O', 'IC50', 'µM', 214),
  ('CCCCCC(O)(P(=O)(O)O)P(=O)(O)O', 'IC50', 'µM', 1620),
  ('O=P(O)(O)C(O)(Cc1ccncc1)P(=O)(O)O', 'IC50', 'µM', 20.9),
  ('O=P(O)(O)C(O)(Cn1ccnn1)P(=O)(O)O', 'IC50', 'µM', 2090),
  ('CC(C)(C)c1cccc(NC(P(=O)(O)O)P(=O)(O)O)c1', 'IC50', 'µM', 25100),
  ('CN(C)CCCC(P(=O)(O)O)P(=O)(O)O', 'IC50', 'µM', 398),
  ('O=P(O)(O)C(NC1CCC1)P(=O)(O)O', 'IC50', 'µM', 126),
  ('O=P(O)(O)C(O)(Cc1ccccn1)P(=O)(O)O', 'IC50', 'µM', 5.62),
  ('Cc1ccnc(NC(P(=O)(O)O)P(=O)(O)O)c1', 'IC50', 'µM', 14.5),
  ('CC1CCCCN1C(P(=O)(O)O)P(=O)(O)O (centres undefined)', 'IC50', 'µM', 2750),
  ('O=P(O)(O)C(NC1CCCCCCC1)P(=O)(O)O', 'IC50', 'µM', 110),
  ('CN(C)CCC(O)(P(=O)(O)O)P(=O)(O)O [OLPADRONIC ACID]', 'IC50', 'µM', 112),
  ('NCCCC(O)(P(=O)(O)O)P(=O)(O)O [ALENDRONIC ACID]', 'IC50', 'µM', 52.5),
  ('CCCNC(P(=O)(O)O)P(=O)(O)O [(PROPYLAMINO)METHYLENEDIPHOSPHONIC ACID]', 'IC50', 'µM', 34.7),
  ('Cc1cccnc1NC(P(=O)(O)O)P(=O)(O)O', 'IC50', 'µM', 4.9),
  ('O=P(O)(O)C(O)(CCNCCCOc1ccccc1)P(=O)(O)O', 'IC50', 'µM', 141),
  ('CC(N)CC(O)(P(=O)(O)O)P(=O)(O)O (centres undefined)', 'IC50', 'µM', 110),
  ('O=P(O)(O)C(Nc1ccccn1)P(=O)(O)O', 'IC50', 'µM', 15.5),
  ('CCCCCN(C)CCC(O)(P(=O)(O)O)P(=O)(O)O [IBANDRONIC ACID]', 'IC50', 'µM', 30.9),
  ('NCCC(O)(P(=O)(O)O)P(=O)(O)O [PAMIDRONIC ACID]', 'IC50', 'µM', 933),
  ('Cc1cccc(CC(O)(P(=O)(O)O)P(=O)(O)O)c1', 'IC50', 'µM', 8910),
  ('CC1CCCC(C)N1C(P(=O)(O)O)P(=O)(O)O (centres undefined)', 'IC50', 'µM', 1660),
  ('O=[N+]([O-])c1cccc(CC(O)(P(=O)(O)O)P(=O)(O)O)c1', 'IC50', 'µM', 110),
  ('CC(C)CCNC(P(=O)(O)O)P(=O)(O)O', 'IC50', 'µM', 46.8),
  ('O=P(O)(O)C(NC1CCCCC1)P(=O)(O)O', 'IC50', 'µM', 46.8),
  ('CN(CCCc1ccccc1)CCC(O)(P(=O)(O)O)P(=O)(O)O', 'IC50', 'µM', 120),
  ('O=P(O)(O)C(NC1CCCC1)P(=O)(O)O', 'IC50', 'µM', 55),
  ('CCC1CCCCN1C(P(=O)(O)O)P(=O)(O)O (centres undefined)', 'IC50', 'µM', 1200),
  ('CCC(C)CNC(P(=O)(O)O)P(=O)(O)O (centres undefined)', 'IC50', 'µM', 19.5),
  ('O=P(O)(O)C(N1CCCCC1)P(=O)(O)O', 'IC50', 'µM', 120),
  ('O=P(O)(O)C(Cc1cccnc1)P(=O)(O)O', 'IC50', 'µM', 10.5),
  ('O=P(O)(O)C(NCc1ccc(F)cc1)P(=O)(O)O', 'IC50', 'µM', 63.1),
  ('O=P(O)(O)C(Sc1ccccn1)P(=O)(O)O', 'IC50', 'µM', 67.6),
  ('O=P(O)(O)C(O)(Cc1ccccc1)P(=O)(O)O', 'IC50', 'µM', 2820),
  ('O=P(O)(O)C(O)(CCc1cccnc1)P(=O)(O)O', 'IC50', 'µM', 912),
  ('Cc1cccc(NC(P(=O)(O)O)P(=O)(O)O)n1', 'IC50', 'µM', 28.2),
  ('O=P(O)(O)C(NC1CCCCCC1)P(=O)(O)O [INCADRONIC ACID]', 'IC50', 'µM', 14.8),
  ('CCN(CC)C(P(=O)(O)O)P(=O)(O)O [(DIETHYLAMINO)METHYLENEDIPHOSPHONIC ACID]', 'IC50', 'µM', 2880),
  ('O=P(O)(O)C(N1CCCCCCC1)P(=O)(O)O', 'IC50', 'µM', 67.6),
  ('O=P(O)(O)C(O)(Cc1cnc2ccccn12)P(=O)(O)O [MINODRONIC ACID]', 'IC50', 'µM', 7.94),
  ('CCN(C1CCCCC1)C(P(=O)(O)O)P(=O)(O)O', 'IC50', 'µM', 102),
  ('CC1CCCN(C(P(=O)(O)O)P(=O)(O)O)C1 (centres undefined)', 'IC50', 'µM', 347),
  ('Cc1cc(Br)cnc1NC(P(=O)(O)O)P(=O)(O)O', 'IC50', 'µM', 72.4),
  ('O=P(O)(O)C(CNc1ccccn1)P(=O)(O)O', 'IC50', 'µM', 14.5),
  ('O=P(O)(O)C(CNc1ccncc1)P(=O)(O)O', 'IC50', 'µM', 16.2),
  ('O=P(O)(O)C(N1CCCCCC1)P(=O)(O)O', 'IC50', 'µM', 12.9),
  ('O=P(O)(O)C(O)(Cc1c[nH]cn1)P(=O)(O)O', 'IC50', 'µM', 12);
